Values compiled from PubChem BioAssay (Tox21).

Measured Potency accompanies every entry in the list below.
Test: qHTS assay to identify small molecule antagonists of the thyroid receptor (TR) signaling pathway - cell viability counter screen (AID 743064); further: nearly all actives have a fitted effect of over 50% in size; further: potency means the concentration at half of the fitted maximal effect
Conditions: GH3.TRE-Luc viability, CellTiter-Fluor, 24 h; series mostly up to 70.3 µM
Inconclusive results are not listed. Activity calls are given as the source filed them. The call rests on the fitted dose curve; in most records, active means well fitted cell-killing curve with a large enough effect in the repeat runs; inconclusive means weak or mixed curves, or effect the other way; inactive means no such curve, though single readings can be large or run the other way.
observed.property: Potency

[[record]]
mol = "C=C1C(=C/C=C2\\CCC[C@]3(C)[C@@H]([C@H](C)CCCC(C)(C)O)CC[C@@H]23)C[C@@H](O)C[C@@H]1O"
observed_result = "23.7 µM (active)"

[[record]]
mol = "CN1CCN(CCCN2c3ccccc3Sc3ccccc32)CC1"
observed_result = "13.3 µM (active)"

[[record]]
mol = "CC[C@@H](C(=O)O)[C@@H]1O[C@@H]([C@@H](C)[C@H](O)[C@H](C)C(=O)[C@H](CC)[C@H]2O[C@]3(C=C[C@@H](O)[C@]4(CC[C@@](C)([C@H]5CC[C@](O)(CC)[C@H](C)O5)O4)O3)[C@H](C)C[C@@H]2C)[C@@H](C)C[C@@H]1C"
observed_result = "0.15 µM (active)"


* * *

Biological target: Nuclear receptor subfamily 1 group I member 2 (Rattus norvegicus) (UniProt Q9R1A7)
Sequence (Q9R1A7 whole entry, looked up): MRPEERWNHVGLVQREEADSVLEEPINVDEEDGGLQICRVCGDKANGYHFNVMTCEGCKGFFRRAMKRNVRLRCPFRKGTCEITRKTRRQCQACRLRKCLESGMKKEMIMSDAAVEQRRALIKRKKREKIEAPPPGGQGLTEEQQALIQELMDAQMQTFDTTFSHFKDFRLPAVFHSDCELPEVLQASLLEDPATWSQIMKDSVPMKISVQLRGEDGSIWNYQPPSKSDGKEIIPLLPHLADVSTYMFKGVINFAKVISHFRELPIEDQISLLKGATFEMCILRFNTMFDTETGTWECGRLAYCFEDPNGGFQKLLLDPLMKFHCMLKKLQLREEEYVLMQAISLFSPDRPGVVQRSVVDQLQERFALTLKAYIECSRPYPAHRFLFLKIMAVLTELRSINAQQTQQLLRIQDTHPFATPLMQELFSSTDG
Assay: Rat pregnane X receptor (rPXR) activation by small molecules, qHTS assay (AID 1346983); further: on the % scale 0 is the no-effect control and ±100 the full control effect; nearly all actives have a fitted effect of over 20% in size
Details: rPXR luciferase reporter cells, One-Glo luminescence, 24 h; stronger effect = higher value
Results filed as inconclusive are left out. Positions of bridges follow the written chain, without caps; N, C: chain ends. Non-standard residues stand in square brackets, D forms with d. Residues, ends and D or L forms follow the SMILES beside them. *: point of attachment. X2 = CC[C@H](C)CCCCC(=O)*; Dab = NCC[C@H](N)C(=O)O
observed.property: max activation (%)

[[record]]
compound = "CC(=O)Nc1ccc(OC(=O)c2ccccc2O)cc1"
observed_property = "max activation"
observed_result = -2.95

[[record]]
compound = "C=C1CC[C@@H]2[C@](C)(CO)[C@H](O)CC[C@@]2(C)[C@@H]1C/C=C1/C(=O)OC[C@H]1O"
observed_property = "max activation"
observed_result = -5.66

[[record]]
compound = "CC(C)c1nc(N(C)S(C)(=O)=O)nc(-c2ccc(F)cc2)c1/C=C/C(O)CC(O)CC(=O)O (configuration not stated)"
observed_property = "max activation"
observed_result = 0.498

[[record]]
compound = "CC[N+](C)(C)Cc1ccccc1Br"
observed_property = "max activation"
observed_result = -1.23

[[record]]
compound = "C[C@H](CCCC(C)(C)O)[C@H]1CC[C@H]2[C@@H]3CC=C4C[C@@H](O)CC[C@]4(C)[C@H]3CC[C@]12C"
observed_property = "max activation"
observed_result = -4.18

[[record]]
compound = "CC[C@H](C)CCCCC(=O)N[C@@H](CCN)C(=O)N[C@H](C(=O)N[C@@H](CCN)C(=O)N[C@H]1CCNC(=O)[C@@H]([C@H](C)O)NC(=O)[C@H](CCN)NC(=O)[C@H](CCN)NC(=O)[C@H](CC(C)C)NC(=O)[C@@H](CC(C)C)NC(=O)[C@H](CCN)NC1=O)[C@@H](C)O (X2-[Dab]T[Dab][Dab][Dab][dL]L[Dab][Dab][dT]; lactam 4-C)"
observed_property = "max activation"
observed_result = -4.02

[[record]]
compound = "[O]=[Bi][O]C(=O)[O][Bi]=[O]"
observed_property = "max activation"
observed_result = -3.15


* * *

Assay: qHTS assay for small molecule agonists of the p53 signaling pathway (AID 651631); further: nearly all actives have a fitted effect of over 15% in size
Settings: HCT-116 p53RE-bla reporter, beta-lactamase FRET ratio, 16 h; series mostly up to 73.3 µM
Inconclusive results are not listed. Active and inactive are the calls of the source. Calls follow the shape of the full dose curve. Non-standard residues stand in square brackets, D forms with d. Residues, ends and D or L forms follow the SMILES beside them. pGlu = O=C1CC[C@@H](C(=O)O)N1; Thz = O=C(O)[C@@H]1CSCN1
Outcome codes: class 1 (active), class 0 (inactive)

[[record]]
molecule = "Cc1onc(-c2ccccc2)c1C(=O)N[C@@H]1C(=O)N2[C@@H]1SC(C)(C)[C@@H]2C(=O)O"
classification = "class 0"

[[record]]
molecule = "CC(C)(C)CC(=O)OCC(=O)[C@@]12OC(C)(C)O[C@@H]1C[C@H]1[C@@H]3CCC4=CC(=O)C=C[C@]4(C)[C@@]3(F)[C@@H](O)C[C@@]12C"
classification = "class 0"

[[record]]
molecule = "O=C1CC[C@@H](C(=O)N2CSC[C@H]2C(=O)O)N1 ([pGlu]-[Thz]-OH)"
classification = "class 0"

[[record]]
molecule = "O=C1CCC(=O)N1CO"
classification = "class 0"

[[record]]
molecule = "CCCC1C(=O)N2C(N(C)C)=Nc3ccc(C)cc3N2C1=O (centres undefined)"
classification = "class 0"

[[record]]
molecule = "O=P(O)(O)OC(CO)CO"
classification = "class 0"

[[record]]
molecule = "CC(C(=O)O)c1ccc(N2Cc3ccccc3C2=O)cc1 (centres undefined)"
classification = "class 0"

[[record]]
molecule = "CC[C@@H](C(=O)O)[C@@H]1O[C@@H]([C@@H](C)[C@H](O)[C@H](C)C(=O)[C@H](CC)[C@H]2O[C@]3(C=C[C@@H](O)[C@]4(CC[C@@](C)([C@H]5CC[C@](O)(CC)[C@H](C)O5)O4)O3)[C@H](C)C[C@@H]2C)[C@@H](C)C[C@@H]1C"
classification = "class 1"

[[record]]
molecule = "NC(=O)OCC(O)COc1ccc(Cl)cc1 (centres undefined)"
classification = "class 0"


* * *

Target: Peroxisome proliferator-activated receptor gamma (Homo sapiens)
Assay: qHTS assay to identify small molecule agonists of the peroxisome proliferator-activated receptor gamma (PPARg) signaling pathway (AID 743094); further: on the % scale 0 is the no-effect control and ±100 the full control effect
Conditions: HEK293H PPARg-UAS-bla, beta-lactamase FRET ratio, 17 h; series mostly up to 57 µM
Results filed as inconclusive are left out. Activity calls are given as the source filed them. Calls follow the shape of the dose curve; as a rule, active = well fitted activation curve with a large enough effect in the signal ratio in the repeat runs (not every such curve was filed as active); inconclusive = weak or mixed curves, or effect the other way; inactive = no such curve, though single readings can be large or run the other way; the % refers to the signal ratio. Positions of bridges follow the written chain, without caps; N, C: chain ends. Non-standard residues stand in square brackets, D forms with d. Residues, ends and D or L forms follow the SMILES beside them. *: point of attachment. X2 = CC[C@H](C)CCCCC(=O)*; Dab = NCC[C@H](N)C(=O)O
observed.property: outcome

[[record]]
molecule = "CCCCC(=O)N(Cc1ccc(-c2ccccc2-c2nn[nH]n2)cc1)[C@@H](C(=O)O)C(C)C"
measured_target = "Peroxisome proliferator-activated receptor gamma (Homo sapiens)"
observed_result = "inactive"

[[record]]
molecule = "CN1CCc2c(c3ccccc3n2Cc2ccccc2)C1"
measured_target = "Peroxisome proliferator-activated receptor gamma (Homo sapiens)"
observed_result = "inactive"

[[record]]
molecule = "CC[C@H](C)CCCCC(=O)N[C@@H](CCN)C(=O)N[C@H](C(=O)N[C@@H](CCN)C(=O)N[C@H]1CCNC(=O)[C@@H]([C@H](C)O)NC(=O)[C@H](CCN)NC(=O)[C@H](CCN)NC(=O)[C@H](CC(C)C)NC(=O)[C@@H](CC(C)C)NC(=O)[C@H](CCN)NC1=O)[C@@H](C)O (X2-[Dab]T[Dab][Dab][Dab][dL]L[Dab][Dab][dT]; lactam 4-C)"
measured_target = "Peroxisome proliferator-activated receptor gamma (Homo sapiens)"
observed_result = "inactive"


* * *

Test: qHTS assay to identify small molecule antagonists of the thyroid receptor (TR) signaling pathway - cell viability counter screen (AID 743064); further: nearly all actives have a fitted effect of over 50% in size
Conditions: GH3.TRE-Luc viability, CellTiter-Fluor, 24 h; series mostly up to 70.3 µM
Records with an inconclusive call do not appear. The source made the active and inactive calls. Calls follow the shape of the dose curve; as a rule, active = well fitted cell-killing curve with a large enough effect in the repeat runs; inconclusive = weak or mixed curves, or effect the other way; inactive = no such curve, though single readings can be large or run the other way.
Outcome codes: label 1 for active, label 0 for inactive

[[record]]
compound = "C=C1CC[C@@H]2[C@](C)(CO)[C@H](O)CC[C@@]2(C)[C@@H]1C/C=C1/C(=O)OC[C@H]1O"
classification = "label 1"

[[record]]
compound = "CCCCCCCCCCCCOCCCN"
classification = "label 0"

[[record]]
compound = "Cn1nnnc1SCC1=C(C(=O)O)N2C(=O)[C@@H](NC(=O)[C@H](OC=O)c3ccccc3)[C@H]2SC1"
classification = "label 0"

[[record]]
compound = "CC(CN1c2ccccc2Sc2ccc(S(=O)(=O)N(C)C)cc21)N(C)C (stereo not drawn)"
classification = "label 1"

[[record]]
compound = "O=[N+]([O-])c1c(Cl)cccc1-c1c[nH]cc1Cl"
classification = "label 1"

[[record]]
compound = "CC(C)=CCC/C(C)=C/C=C/C(C)=C/C=C/C(C)=C/C=C/C=C(C)/C=C/C=C(C)/C=C/C=C(\\C)CCC=C(C)C"
classification = "label 0"

[[record]]
compound = "CN1CCCC(CN2c3ccccc3Sc3ccccc32)C1 (stereo not drawn)"
classification = "label 1"

[[record]]
compound = "CC(C)N1CCN(c2ccc(OC[C@H]3CO[C@](Cn4cncn4)(c4ccc(Cl)cc4Cl)O3)cc2)CC1"
classification = "label 1"

[[record]]
compound = "CCOC(=O)O[C@]1(C(=O)COC(=O)CC)CC[C@H]2[C@@H]3CCC4=CC(=O)C=C[C@]4(C)[C@H]3[C@@H](O)C[C@@]21C"
classification = "label 0"

[[record]]
compound = "C[C@@H]1C[C@H]2[C@@H]3CCC4=CC(=O)C=C[C@]4(C)[C@@]3(F)[C@@H](O)C[C@]2(C)[C@@]1(O)C(=O)COC(=O)c1cccc(S(=O)(=O)O)c1"
classification = "label 0"

[[record]]
compound = "CCOC(=O)[C@H](CS)NCCN[C@@H](CS)C(=O)OCC"
classification = "label 0"

[[record]]
compound = "Cc1cccc(C)c1N(CCCc1cccnc1)C(=O)C(C)N (stereo not drawn)"
classification = "label 0"

[[record]]
compound = "C[C@@H]1C[C@H]2C3C[C@H](F)C4=CC(=O)C=CC4(C)[C@@]3(F)[C@@H](O)CC2(C)[C@@]1(O)C(=O)COC(=O)C(C)(C)C (stereo partly drawn)"
classification = "label 0"

[[record]]
compound = "COc1ccccc1N1CCN(CCCC(=O)c2ccc(F)cc2)CC1"
classification = "label 0"

[[record]]
compound = "O=C(O)[C@@H](O)[C@H](O)[C@H](O)[C@@H](O)C(=O)O (tested in a mixture with another compound)"
classification = "label 0"

[[record]]
compound = "COc1cc(NCCCC(C)N)c2ncccc2c1 (stereo not drawn)"
classification = "label 1"

[[record]]
compound = "CCC(C)C(C(=O)OCC[N+](C)(CC)CC)c1ccccc1 (stereo not drawn)"
classification = "label 0"

[[record]]
compound = "Nc1nc2c(c(=O)[nH]1)N(C=O)C(CNc1ccc(C(=O)N[C@@H](CCC(=O)O)C(=O)O)cc1)CN2 (stereo partly drawn)"
classification = "label 0"

